Origin of the recorded values: patent US20030153590A1

Experiment: Solubility of nalmefene HCl in water as a function of pH
Format: physicochemical
Conditions: aqueous buffer, pH 7.0, from diagram of log solubility of Table 5 vs pH, read-out: Matematically determined solubility in water
Protocol: Cs is the water solubility of nalmefene. Because the water solubility of nalmefene was not available in the literature for all the pH values used in the permeation study, the solubilities at pH values 6.5, 7.0, 7.5, and 8.0 were determined matematically from a diagram that described the logarithm of the solubility listed on Table 5 as a function of pH (Cs,pH).
Structures can show the parent of a compound that is named as a salt.
PROPERTY_MEASURED: solubility (mg/mL)
Numbers only, in mg/mL.

Input: Which solubility reading was recorded for the compound C=C1CC[C@@]2(O)[C@H]3Cc4ccc(O)c5c4[C@@]2(CCN3CC2CC2)[C@H]1O5 [Nalmefene HCl] ?
Output: 88.6

###

Assay: In vitro permeation study, MDCK cell membranes
Type: in vitro ADME, canine
Settings: dog, pH 7.5, n = 4, read-out: Permeability factor (Papp ± SD)
PROPERTY_MEASURED: Papp A→B at 180 min, 500 μM (nm/s)
Give bare numbers, in nm/s.

Input: Which Papp A→B at 180 min, 500 μM reading was recorded for the compound "C=C1CC[C@@]2(O)[C@H]3Cc4ccc(O)c5c4[C@@]2(CCN3CC2CC2)[C@H]1O5" ?
Output: 227

###

Assay: Solubility of nalmefene HCl in water as a function of pH
Type: physicochemical
Settings: aqueous buffer, pH 8.0, from diagram of log solubility of Table 5 vs pH, read-out: Matematically determined solubility in water
Structures can show the parent of a compound that is named as a salt.
PROPERTY_MEASURED: solubility (µg/mL)
Numbers only, in µg/mL.

Input: Which solubility reading was recorded for the compound C=C1CC[C@@]2(O)[C@H]3Cc4ccc(O)c5c4[C@@]2(CCN3CC2CC2)[C@H]1O5 [Nalmefene HCl] ?
Output: 440
